target: human HDAC3/SMRT heterodimer (Homo sapiens (Human))
Sequence (O15379 whole entry): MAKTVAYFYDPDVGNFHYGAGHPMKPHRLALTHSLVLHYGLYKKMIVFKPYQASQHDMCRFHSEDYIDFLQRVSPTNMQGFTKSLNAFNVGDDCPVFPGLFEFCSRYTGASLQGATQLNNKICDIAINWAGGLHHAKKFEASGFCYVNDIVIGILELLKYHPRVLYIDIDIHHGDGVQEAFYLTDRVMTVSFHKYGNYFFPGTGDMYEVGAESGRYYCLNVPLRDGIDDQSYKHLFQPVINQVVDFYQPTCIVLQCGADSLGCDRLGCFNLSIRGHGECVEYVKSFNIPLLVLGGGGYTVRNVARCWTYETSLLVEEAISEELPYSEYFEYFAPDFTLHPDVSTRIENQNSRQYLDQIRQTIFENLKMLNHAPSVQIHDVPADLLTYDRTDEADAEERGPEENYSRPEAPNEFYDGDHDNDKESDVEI
Sequence (Q9Y618 1-899 partner): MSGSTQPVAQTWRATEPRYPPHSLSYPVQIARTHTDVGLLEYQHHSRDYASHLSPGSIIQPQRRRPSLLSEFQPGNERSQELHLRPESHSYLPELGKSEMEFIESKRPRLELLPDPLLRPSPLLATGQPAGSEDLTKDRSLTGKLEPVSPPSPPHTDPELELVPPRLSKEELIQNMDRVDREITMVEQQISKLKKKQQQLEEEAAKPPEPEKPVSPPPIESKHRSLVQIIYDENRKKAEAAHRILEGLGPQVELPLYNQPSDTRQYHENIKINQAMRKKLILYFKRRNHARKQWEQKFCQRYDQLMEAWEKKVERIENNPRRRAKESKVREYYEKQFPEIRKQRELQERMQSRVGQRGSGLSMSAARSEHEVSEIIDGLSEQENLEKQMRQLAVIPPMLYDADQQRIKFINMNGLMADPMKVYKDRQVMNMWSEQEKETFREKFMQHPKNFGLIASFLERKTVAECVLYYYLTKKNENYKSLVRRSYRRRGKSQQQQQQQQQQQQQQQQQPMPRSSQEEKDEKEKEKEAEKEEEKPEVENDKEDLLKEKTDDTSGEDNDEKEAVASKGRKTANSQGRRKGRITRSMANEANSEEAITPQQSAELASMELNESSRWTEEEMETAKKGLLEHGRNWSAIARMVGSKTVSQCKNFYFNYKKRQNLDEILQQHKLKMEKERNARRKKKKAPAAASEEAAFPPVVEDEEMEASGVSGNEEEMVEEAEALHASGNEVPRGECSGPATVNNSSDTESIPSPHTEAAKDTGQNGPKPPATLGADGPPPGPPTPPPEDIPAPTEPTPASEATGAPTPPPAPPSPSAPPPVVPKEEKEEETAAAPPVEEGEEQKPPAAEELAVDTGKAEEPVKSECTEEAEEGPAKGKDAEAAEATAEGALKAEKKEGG
outcome.measure: IC50 (nM)
Only the number, expressed in nM, is required.

compound	assay.target	recorded.value
COc1nc2ccccc2cc1-c1cnc([C@H](CCCCCC(=O)c2ncco2)NC(=O)c2ccc(OC(F)F)nc2)[nH]1	human HDAC3/SMRT heterodimer (Homo sapiens (Human))	2.3
COc1nc(C2CC2)ccc1-c1c[nH]c([C@H](CCCCCC(=O)c2ncco2)NC(=O)[C@H]2CC23CCN(C)CC3)n1	human HDAC3/SMRT heterodimer (Homo sapiens (Human))	0.84
COc1nc2ccccc2cc1-c1cnc([C@H](CCCCCC(=O)c2ncco2)NC(=O)c2cc3n(n2)CCCC3)[nH]1	human HDAC3/SMRT heterodimer (Homo sapiens (Human))	2

The measured IC50 that COc1cc2nc(C)ccc2cc1-c1cnc([C@H](CCCCCC(=O)c2ncco2)NC(=O)CN2CCOCC2=O)[nH]1 showed for human HDAC3/SMRT heterodimer (Homo sapiens (Human)) is 1.5

The measured IC50 that CN1CCC(C(=O)N[C@@H](CCCCCC(=O)c2nccs2)c2nc(-c3ccc(F)cc3)c[nH]2)CC1 showed for human HDAC3/SMRT heterodimer (Homo sapiens (Human)) is 1.5

The measured IC50 that CCn1cc(-c2ccc3nc(C)ccc3c2)nc1[C@@H](N)CCCCCC(=O)c1ncco1 showed for human HDAC3/SMRT heterodimer (Homo sapiens (Human)) is 48

The measured IC50 that COc1cc2nc(C)ccc2cc1-c1cnc([C@H](CCCCCC(=O)c2ncco2)NC(=O)C2COCCO2)[nH]1 (stereo partly shown) [Example 174] showed for human HDAC3/SMRT heterodimer (Homo sapiens (Human)) is 0.54

---

Below are pIC50 values recorded for UniProtKB Q9UBN7.
pIC50 field: float, defined as -log10 of concentration (mol/L).

entry.smiles	pIC50
CN1CC(C(=O)N[C@@H](CCCCCC(=O)c2ccon2)c2nc(Cl)c(-c3ccc(F)cc3)[nH]2)C1	5.34
CN1CCC(C(=O)N[C@@H](CCCCCC(=O)c2nccs2)c2nc(-c3ccc(F)cc3)c[nH]2)CC1	4.35

Now, please, on to the next compound.
The measured pIC50 that COc1cc2nc(C)ccc2cc1-c1cnc([C@H](CCCCCC(=O)c2ncco2)NC(=O)CN2CCOCC2=O)[nH]1 showed for UniProtKB Q9UBN7 is 6.23

---

biological target: UniProt Q9UBN7; assay: biochemical
outcome.measure: IC50

Some solved cases for reference:
compound	outcome.measure	recorded.value
COc1cc2nc(C)ccc2cc1-c1c[nH]c([C@@H](N)CCCCCC(=O)c2ccon2)n1 [Example 31]	IC50	22 µM
N[C@@H](CCCCCC(=O)c1ncco1)c1ncc(-c2ccc3ncccc3c2)[nH]1 [Example 16]	IC50	33 µM
CN(C)CC(=O)N[C@@H](CCCCCC(=O)c1ccon1)c1nc(Cl)c(-c2ccc(F)cc2)[nH]1 [Example 194]	IC50	9.5 µM
Cc1ccc2cc(-c3cnc(C(N)CCCCCC(=O)c4ncco4)o3)ccc2n1 (centres unmarked) [Example 26]	IC50	≥ 45 µM
COc1cc(-c2cnc([C@@H](N)CCCCCC(=O)c3ncco3)[nH]2)c(F)cn1 [Example 129]	IC50	≥ 45 µM

// sample Cc1ccc2cc(-c3c[nH]c([C@@H](N)CCCCCC(=O)c4ncco4)n3)ccc2n1 [Example 9] , its IC50 was 2.3 µM

// sample COc1cc2nc(C)ccc2cc1-c1cnc([C@H](CCCCCC(=O)c2ncco2)NC2CC(OC)C2)[nH]1 (some centres unmarked) [Example 84] , its IC50 was 13 µM

// sample COc1cc2nc(C)ccc2cc1-c1cnc([C@H](CCCCCC(=O)c2ncco2)NC(=O)C2CN(C)C2)o1 [Example 100] , its IC50 was 0.62 µM

---

pIC50 by entry:
target: human HDAC8 (Homo sapiens (Human)); assay: HDAC8 inhibition assay (modified FLUOR DE LYS, 384-well); format: biochemical; settings: […] enzyme, 200 μM substrate BML-KI178, 3 h pre-incubation; read-out: HDAC8 IC50
Sequence (Q9BY41 whole entry): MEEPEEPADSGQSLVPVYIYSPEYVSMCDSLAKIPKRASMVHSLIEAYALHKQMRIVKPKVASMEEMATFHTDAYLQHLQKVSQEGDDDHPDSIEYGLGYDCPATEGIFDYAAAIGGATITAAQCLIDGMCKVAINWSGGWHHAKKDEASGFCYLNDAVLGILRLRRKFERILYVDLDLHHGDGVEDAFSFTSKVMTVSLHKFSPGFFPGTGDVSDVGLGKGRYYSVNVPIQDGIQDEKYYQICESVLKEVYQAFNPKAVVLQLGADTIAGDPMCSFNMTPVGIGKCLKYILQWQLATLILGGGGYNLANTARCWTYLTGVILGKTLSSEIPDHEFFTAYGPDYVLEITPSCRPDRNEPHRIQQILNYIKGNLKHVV
pIC50 field: float, defined as -log10 of concentration (mol/L).

Some solved cases for reference:
entry.smiles	assay.target	pIC50
CN1CC(C(=O)N[C@@H](CCCCCC(=O)c2ncco2)c2ncc(-c3cc(OC4CCC4)ccc3F)[nH]2)C1	human HDAC8 (Homo sapiens (Human))	7.92
COc1nc2ccccc2cc1-c1cnc([C@H](CCCCCC(=O)c2ncco2)NC(=O)C2(c3ccncc3)CC2)[nH]1	human HDAC8 (Homo sapiens (Human))	7.24
COc1cc2c(ccc(=O)n2C)cc1-c1cnc([C@H](CCCCCC(=O)c2ccon2)NC(=O)CN(C)C)[nH]1	human HDAC8 (Homo sapiens (Human))	8.46
COc1nc2ccccc2cc1-c1cnc([C@H](CCCCCC(=O)c2ncco2)NC(=O)Cn2cccc2)[nH]1	human HDAC8 (Homo sapiens (Human))	6.92
Cc1cc(C(=O)CCCCC[C@H](N)c2nc(-c3ccccc3F)c[nH]2)no1	human HDAC8 (Homo sapiens (Human))	5.92

Now, please, on to the next compound.
// sample N[C@@H](CCCCCC(=O)c1ncco1)c1nc(-c2ccc3nn(C4CC4)cc3c2)c[nH]1 , its pIC50 was 5.51

---

molecular target: human HDAC1 (Homo sapiens (Human), UniProt Q13547)
Sequence (Q13547 whole entry): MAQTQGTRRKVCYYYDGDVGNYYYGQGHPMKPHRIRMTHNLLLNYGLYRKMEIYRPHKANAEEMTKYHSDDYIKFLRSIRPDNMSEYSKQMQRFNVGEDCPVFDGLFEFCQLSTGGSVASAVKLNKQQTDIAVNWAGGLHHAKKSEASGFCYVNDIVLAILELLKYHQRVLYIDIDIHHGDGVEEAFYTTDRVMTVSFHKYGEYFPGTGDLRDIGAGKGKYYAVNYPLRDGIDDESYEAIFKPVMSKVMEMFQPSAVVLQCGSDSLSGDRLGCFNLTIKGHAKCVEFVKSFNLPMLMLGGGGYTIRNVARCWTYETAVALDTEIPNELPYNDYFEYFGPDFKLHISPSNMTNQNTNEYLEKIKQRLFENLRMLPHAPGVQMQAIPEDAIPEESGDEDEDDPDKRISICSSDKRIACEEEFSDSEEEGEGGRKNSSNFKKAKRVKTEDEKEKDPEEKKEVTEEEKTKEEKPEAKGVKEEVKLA
Assign labels as follows, please: MET for IC50 below 2 nM; NOT MET for IC50 equal to or exceeding 2 nM.

Some entries whose results are on file:
compound	assigned.class
CS(=O)(=O)c1ccc(-c2cnc([C@@H](N)CCCCCC(=O)c3ncco3)[nH]2)c(F)c1	NOT MET
COc1nc2ccccc2cc1-c1cnc([C@H](CCCCCC(=O)c2ncco2)NC(=O)c2nc3ccccc3o2)[nH]1	NOT MET
COc1cc2nc(C)ccc2cc1-c1cnc([C@H](CCCCCC(=O)c2ncco2)NC(=O)c2cc3n(n2)CCCC3)[nH]1	NOT MET
Cc1ccc2cc(-c3cnc(C(CCCCCC(=O)c4ncco4)NC(=O)[C@H]4CC45CCN(C)CC5)o3)ccc2n1 (some centres unmarked)	MET
COc1cc2nc(C)ccc2cc1-c1cnc([C@H](CCCCCC(=O)c2ncco2)NC(=O)CN2CCNCC2=O)[nH]1	MET
CCn1ccc2cc(-c3cnc([C@H](CCCCCC(=O)c4ncco4)NC(=O)CN(C)C)[nH]3)c(OC)cc2c1=O	MET

Report whether reported IC50 is lower than 2 nM (strictly) for COc1cc2nc(C)ccc2cc1-c1cnc([C@H](CCCCCC(=O)c2ncco2)NC(=O)c2cc3ccccn3n2)[nH]1
NOT MET

Report whether reported IC50 is lower than 2 nM (strictly) for N[C@@H](CCCCCC(=O)c1ncco1)c1ncc(-c2ccc(C(F)(F)F)cc2F)[nH]1
NOT MET

Report whether reported IC50 is lower than 2 nM (strictly) for NC(CCCCCC(=O)c1ccon1)c1cnn(-c2ccc(F)cc2)c1 (centres unmarked) [Example 121]
NOT MET

Report whether reported IC50 is lower than 2 nM (strictly) for COc1cc2nc(C)ccc2cc1-c1cnc([C@H](CCCCCC(=O)c2ncco2)NC(=O)C2COc3ccccc3O2)[nH]1 (some centres unmarked)
NOT MET

---

EC50 by entry:
system: KARN cells (Jurkat 2C4); assay: cells; conditions: Homo sapiens, read-out: Karn EC50 nM 5% NHS
Only the number, expressed in nM, is required.

Some solved cases for reference:
compound	EC50 [nM]
COc1cc2nc(C)ccc2cc1-c1cnc([C@H](CCCCCC(=O)c2ncco2)NC(=O)CN(C)C)[nH]1 [Example 89]	32
CC(=O)N[C@@H](CCCCCC(=O)c1ncco1)c1ncc(-c2ccc3nc(C)ccc3c2)[nH]1 [Example 87]	60
COc1cc2nc(C)ccc2cc1-c1cnc([C@H](CCCCCC(=O)c2ncco2)NC(=O)C2CN(C)C2)[nH]1 [Example 99]	73

Now, please, on to the next compound.
// sample COc1cc2nc(C)ccc2cc1-c1cnc([C@H](CCCCCC(=O)c2ncco2)NC(=O)C2CN(C)C2)o1 [Example 100] , its EC50 was 21

---

target: HDAC6 (Homo sapiens (Human), UniProt Q9UBN7); assay: biochemical
Sequence (Q9UBN7 whole entry): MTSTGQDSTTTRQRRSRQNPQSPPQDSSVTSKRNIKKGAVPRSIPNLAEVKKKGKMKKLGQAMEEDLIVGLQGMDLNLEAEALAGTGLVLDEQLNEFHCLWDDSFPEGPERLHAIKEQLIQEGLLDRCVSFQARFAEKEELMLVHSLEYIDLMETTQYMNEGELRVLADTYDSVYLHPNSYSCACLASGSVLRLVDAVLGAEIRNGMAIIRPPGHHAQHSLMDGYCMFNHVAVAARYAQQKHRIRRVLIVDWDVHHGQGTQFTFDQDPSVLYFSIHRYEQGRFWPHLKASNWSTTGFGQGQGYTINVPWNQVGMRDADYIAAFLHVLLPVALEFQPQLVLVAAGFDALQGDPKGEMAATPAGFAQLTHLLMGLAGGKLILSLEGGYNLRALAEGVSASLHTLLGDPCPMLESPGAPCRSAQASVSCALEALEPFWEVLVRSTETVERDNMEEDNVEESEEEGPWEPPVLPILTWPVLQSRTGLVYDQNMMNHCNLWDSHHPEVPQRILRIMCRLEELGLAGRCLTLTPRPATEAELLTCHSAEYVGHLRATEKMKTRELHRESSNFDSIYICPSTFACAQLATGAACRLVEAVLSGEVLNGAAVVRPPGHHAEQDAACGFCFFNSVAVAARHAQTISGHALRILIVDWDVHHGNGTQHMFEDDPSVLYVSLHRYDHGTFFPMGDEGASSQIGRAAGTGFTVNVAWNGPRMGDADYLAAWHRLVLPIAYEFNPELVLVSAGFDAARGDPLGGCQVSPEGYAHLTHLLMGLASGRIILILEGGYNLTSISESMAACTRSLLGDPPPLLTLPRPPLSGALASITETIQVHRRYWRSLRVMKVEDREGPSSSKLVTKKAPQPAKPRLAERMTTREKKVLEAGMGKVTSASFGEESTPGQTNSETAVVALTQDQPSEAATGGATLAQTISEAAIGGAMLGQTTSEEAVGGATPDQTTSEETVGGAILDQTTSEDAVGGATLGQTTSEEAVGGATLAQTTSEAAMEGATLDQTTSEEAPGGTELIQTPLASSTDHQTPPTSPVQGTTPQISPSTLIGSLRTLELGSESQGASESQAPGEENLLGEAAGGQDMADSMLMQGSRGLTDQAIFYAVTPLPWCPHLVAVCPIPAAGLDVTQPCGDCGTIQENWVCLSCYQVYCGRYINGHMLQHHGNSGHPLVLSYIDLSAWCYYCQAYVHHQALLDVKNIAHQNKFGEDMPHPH
IC50 by entry:
Only the number, expressed in µM, is required.

Some solved cases for reference:
entry.smiles	IC50 / µM
COc1cc2ncccc2cc1-c1c[nH]c([C@@H](N)CCCCCC(=O)c2ccon2)n1	5.6
Cc1ccc2cc(-c3cnc([C@H](CCCCCC(=O)c4ncco4)NC(=O)C4=NOC5(CCN(C)CC5)C4)o3)ccc2n1	4.1

Now, please, on to the next compound.
// sample Cc1ccc2cc(-c3cn(C)c([C@@H](N)CCCCCC(=O)c4ncco4)n3)ccc2n1 , its IC50 was 5.16

---

target: HDAC6 (Homo sapiens (Human), UniProt Q9UBN7)
Assign labels as follows, please: satisfied for IC50 below 20 µM; not satisfied for IC50 equal to or exceeding 20 µM.

compound	assigned.class
COc1nc2cnccc2cc1-c1c[nH]c([C@@H](N)CCCCCC(=O)c2ncco2)n1 [Example 13]	not satisfied
COc1cc2nc(C)ccc2cc1-c1cnc([C@H](CCCCCC(=O)c2ncco2)NC(=O)Cn2ccc(C)n2)[nH]1 [Example 166]	satisfied
COc1nc(C2CC2)ccc1-c1c[nH]c([C@H](CCCCCC(=O)c2ncco2)NC(=O)[C@H]2CC23CCN(C)CC3)n1 [Example 115]	satisfied
COc1cc2c(ccc(=O)n2C)cc1-c1cnc([C@@H](N)CCCCCC(=O)c2ccon2)[nH]1 [Example 35]	satisfied
Cc1cc(C(=O)CCCCC[C@H](NC(=O)CN(C)C)c2nc(-c3ccccc3F)c[nH]2)no1 [Example 48]	not satisfied
O=C(N[C@@H](CCCCCC(=O)c1nccs1)c1nc(-c2ccc(F)cc2)c[nH]1)c1cncs1 [Example 7]	not satisfied
COc1cc2nc(C)ccc2cc1-c1cnc([C@H](CCCCCC(=O)c2ncco2)NCc2ccccc2)[nH]1 [Example 82]	satisfied

From here, focus on the item given below.
Report whether reported IC50 is lower than 20 µM (strictly) for CN1CCC2(CC1)C[C@@H]2C(=O)N[C@@H](CCCCCC(=O)c1ncco1)c1oc(-c2ccc(F)cc2)nc1C#N [Example 191]
not satisfied
